Would you kindly list IC50 for each of these binders?
- tested-system: T1, Rat IL-23R_huFC (rat, UniProt F1LX96 39-369)
- T1 sequence: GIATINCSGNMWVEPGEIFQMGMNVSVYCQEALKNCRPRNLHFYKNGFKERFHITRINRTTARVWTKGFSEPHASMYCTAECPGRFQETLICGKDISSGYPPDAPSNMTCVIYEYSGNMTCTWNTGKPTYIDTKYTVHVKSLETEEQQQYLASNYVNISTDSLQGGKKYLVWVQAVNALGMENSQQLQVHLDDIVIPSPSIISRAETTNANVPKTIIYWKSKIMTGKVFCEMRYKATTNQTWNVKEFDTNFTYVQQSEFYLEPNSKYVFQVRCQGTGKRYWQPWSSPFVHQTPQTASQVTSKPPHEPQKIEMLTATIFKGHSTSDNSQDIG
- assay-protocol: rat IL-23R competitive binding ELISA
Bridges are numbered along the chain shown (N, C = ends). [ ]: non-standard residue; d: D form. hLeu = CC(C)CC[C@H](N)C(=O)O
Response body: numeric value in nM, unit text excluded.

Query block: For Ac-CQTWQCYW[hLeu]ENE-NH2 (disulfide 1-6 (inferred)) [Ac-CQTWQCYW-[hLeu]-ENE-NH2] , what is its reported IC50?
Result block: 1000

Query block: For Ac-CQTWQCYW[hLeu]EPG-NH2 (not fully specified (bridges); cysteine pairing not given here) [Ac-CQTWQCYW-[hLeu]-EPG-NH2] , what is its reported IC50?
Result block: 140

Query block: For CQTWQCYWXENG (Ac; α-MeOrn; NH2) [Ac-CQTWQCYW-[α-MeOrn]-ENG-NH2] , what is its reported IC50?
Result block: 64
